SARS-CoV-2 3CLpro (Severe acute respiratory syndrome coronavirus 2) pIC50 data
pIC50: −log10 of the molar value.

Here's what some known entries look like.
CNC(=O)c1cc(Cl)cc([N+](=O)[O-])c1N[C@H]1CN(C(=O)c2cncc3cnccc23)CCC1(F)F: > 7.00
O=C(N[C@H]1CCOC1)c1cc(Br)cc([N+](=O)[O-])c1N[C@H]1CN(C(=O)c2cncc3ccccc23)CCC1(F)F: > 7.00
CNC(=O)c1cc(Br)cc([N+](=O)[O-])c1N[C@@H]1CCCC[C@@H]1NC(=O)c1cncc2ccc(F)cc12: > 7.00

The reported value for "CNC(=O)c1cc(Br)cc([N+](=O)[O-])c1N[C@H]1CN(C(=O)c2cncc3ccccc23)CC[C@H]1F" in terms of pIC50 is > 7.00

* * *

Task for the reader: assign each of the following molecules its reported pIC50.
Biological target: SARS-CoV-2 3CLpro (Severe acute respiratory syndrome coronavirus 2)
pIC50: −log10 of the molar value.

O=C(NC1CC(F)(F)C1)c1cc(Br)cc([N+](=O)[O-])c1N[C@H]1CN(C(=O)c2cncc3ccccc23)CCC1(F)F: > 7.00

I have 5 molecules here; please give me pIC50 for each one.
1. COc1cncc(C(=O)N2CCC3(CCN(c4c(C(=O)NC5CC(F)(F)C5)cc(Br)cc4[N+](=O)[O-])C3)C2)c1 (stereo not drawn)
2. O=C(NC1CC(F)(F)C1)c1cc(Cl)cc(C(F)(F)F)c1N[C@@H]1COCC[C@@H]1NC(=O)c1cncc2ccccc12
3. CNC(=O)c1cc(Cl)cc([N+](=O)[O-])c1N[C@H]1CN(C(=O)c2cncc3ccccc23)CCC1(F)F
4. O=C(NC1CC(F)(F)C1)c1cc(Cl)cc([N+](=O)[O-])c1N[C@@H]1COCC[C@@H]1NC(=O)c1cncc2ccccc12
5. CNC(=O)c1cc(Br)cc([N+](=O)[O-])c1N1CC(F)(F)C2(CCN(C(=O)c3cncc4ccccc34)C2)C1 (stereo not drawn)

Result block:
1. 5.00 to 6.00
2. 6.00 to 7.00
3. > 7.00
4. > 7.00
5. 6.00 to 7.00

Give pIC50 for each of the items listed below.
1. CN(C)C(=O)c1cc(Br)cc([N+](=O)[O-])c1N[C@H]1CN(C(=O)c2cncc3ccccc23)CC1(F)F
2. CN(C)C(=O)c1cc(Br)cc([N+](=O)[O-])c1N[C@H]1CN(C(=O)c2cncc3ccccc23)CCC1(F)F
3. O=C(NC1CC1)c1cc(Br)cc([N+](=O)[O-])c1N[C@@H]1COCC[C@@H]1NC(=O)c1cncc2ccccc12
4. C=CCNC(=O)c1cc(Cl)cc([N+](=O)[O-])c1N[C@H]1CN(C(=O)c2cncc3ccccc23)CCC1(F)F
5. CNC(=O)c1cc(Br)cc([N+](=O)[O-])c1NC1CC2(C1)CN(C(=O)c1cncc3ccccc13)C2
6. O=C(N[C@@H]1CCOC1)c1cc(Br)cc(C(F)(F)F)c1N[C@H]1CN(C(=O)c2cncc3ccccc23)CCC1(F)F
7. CNC(=O)c1cc(Br)cc([N+](=O)[O-])c1N[C@H]1CN(C(=O)c2cncc(-n3cccn3)c2)CCC1(F)F

Result block:
["> 7.00", "> 7.00", "> 7.00", "> 7.00", "≤ 5.00", "> 7.00", "6.00 to 7.00"]

Each molecule below has a recorded value; state its pIC50.
1. O=C(O)c1cc(Br)cc([N+](=O)[O-])c1N[C@@H]1CCCC[C@@H]1NC(=O)c1cncc2ccccc12
2. NNC(=O)c1cc(Br)cc([N+](=O)[O-])c1N[C@@H]1CCCC[C@@H]1NC(=O)c1cncc2ccccc12

Result block:
["5.00 to 6.00", "5.00 to 6.00"]

For each of the molecules below, state pIC50.
1. O=C(NCC(F)(F)F)c1cc(Br)cc([N+](=O)[O-])c1N[C@@H]1CCCC[C@@H]1NC(=O)c1cncc2ccccc12
2. CNC(=O)c1cc(Br)cc([N+](=O)[O-])c1NC(C(C)C)C1CN(C(=O)c2cncnc2)C1 (stereo not drawn)
3. COC1CN(C(=O)c2cc(Cl)cc([N+](=O)[O-])c2N[C@H]2CN(C(=O)c3cncc4ccccc34)CCC2(F)F)C1
4. CNC(=O)c1cc(Br)cc([N+](=O)[O-])c1N[C@H]1CN(C(=O)c2cncc3ccccc23)C[C@@H]1C
5. C[C@@H](NC(=O)c1cc(Br)cc([N+](=O)[O-])c1N[C@@H]1CCCN(C(=O)c2cncc3ccccc23)C1)C(F)(F)F
6. C=CCNC(=O)c1cc(Br)cc([N+](=O)[O-])c1N[C@H]1CN(C(=O)c2cncc3ccccc23)CCC1(F)F

Result block:
1. 6.00 to 7.00
2. 5.00 to 6.00
3. > 7.00
4. > 7.00
5. > 7.00
6. > 7.00

Hello, I would appreciate it if you could give pIC50 for each entry below.
1. C[C@H](NC(=O)c1cc(Br)cc([N+](=O)[O-])c1N[C@@H]1COCC[C@@H]1NC(=O)c1cncc2ccccc12)C(F)(F)F
2. CNC(=O)c1cc(Br)cc([N+](=O)[O-])c1NC(C1CC1)C1CN(C(=O)c2cncc3ccccc23)C1 (stereo not drawn)
3. CNC(=O)c1cc(Br)cc([N+](=O)[O-])c1N[C@H]1CN(C(=O)c2cnnn2C)CCC1(F)F
4. O=C(NC1CC(F)(F)C1)c1cc(Br)cc([N+](=O)[O-])c1N1CCC2(CCN(C(=O)c3cncnc3)C2)C1 (stereo not drawn)
5. CNC(=O)c1cc(Br)cc([N+](=O)[O-])c1NC1(C2CN(C(=O)c3cncc4ccccc34)C2)CC1
6. Cn1cc(NC(=O)c2cc(Cl)cc([N+](=O)[O-])c2N[C@H]2CN(C(=O)c3cncc4ccccc34)CCC2(F)F)cn1

Result block:
["> 7.00", "6.00 to 7.00", "≤ 5.00", "≤ 5.00", "5.00 to 6.00", "> 7.00"]

* * *

Please provide measured pIC50 for the entries that follow.
Biological target: SARS-CoV-2 3CLpro (Severe acute respiratory syndrome coronavirus 2, UniProt P0DTD1)
pIC50: −log10 of the molar value.

Example cases with answers are listed next.
O=C(N[C@@H]1CCOC1)c1cc(Br)cc([N+](=O)[O-])c1N[C@H]1CN(C(=O)c2cncc3ccccc23)CC1(F)F [Compound 163]: > 7.00
CNC(=O)c1cc(Br)cc([N+](=O)[O-])c1N[C@@H]1CCOC[C@@H]1NC(=O)c1cncc2ccccc12 [Compound 70]: 6.00 to 7.00

Now look at this one.
Noted pIC50 for CNC(=O)c1cc(Br)cc([N+](=O)[O-])c1N[C@@H]1CCCC[C@@H]1NC(=O)c1cncc(CNC(=O)OC(C)(C)C)c1 [Compound 5] , tested on SARS-CoV-2 3CLpro (Severe acute respiratory syndrome coronavirus 2, UniProt P0DTD1): ≤ 5.00

* * *

Consider the following compounds; for each one, report its pIC50.
Target: SARS-CoV-2 3CLpro (Severe acute respiratory syndrome coronavirus 2, UniProt P0DTD1)
Assay: biochemical
Conditions: inhibition of SARS-CoV-2 3CLpro; 15 nM 3CLpro, 25 μM fluorogenic substrate, 37° C.; read-out: Inhibitory Activity (IC50)
pIC50: −log10 of the molar value. Structures can show the parent of a compound that is named as a salt.

O=C(NC1CC1)c1cc(Cl)cc(C(F)(F)F)c1N[C@H]1CN(C(=O)c2cncc3ccccc23)CCC1(F)F [Compound 83]: > 7.00

For each of the items listed, what is its pIC50?
1. CNC1CN(C(=O)c2cc(Br)cc([N+](=O)[O-])c2N[C@H]2CN(C(=O)c3cncc4ccccc34)CCC2(F)F)C1 [Compound 95, hydrochloride]
2. O=C(N[C@@H]1CCNC1)c1cc(Br)cc([N+](=O)[O-])c1N[C@H]1CN(C(=O)c2cncc3ccccc23)CC1(F)F [Compound 150]
3. CC(C)C(Nc1c(-c2ncco2)cc(Br)cc1[N+](=O)[O-])C1CN(C(=O)c2cncc3ccccc23)C1 (stereo not drawn) [Compound 65]
4. CNC(=O)c1cc(Br)cc([N+](=O)[O-])c1N1CCC2(CN(C(=O)c3cncc4ccccc34)C2)C1 [Compound 10]
5. CNC(=O)c1cc(Br)cc([N+](=O)[O-])c1O[C@H]1CN(C(=O)c2cncc3ccccc23)CCC1(F)F [Compound 180]
6. CN1CC[C@@H](NC(=O)c2cc(Br)cc([N+](=O)[O-])c2N[C@H]2CN(C(=O)c3cncc4ccccc34)CCC2(F)F)C1 [Compound 45, hydrochloride]

Result block:
> 7.00
> 7.00
5.00 to 6.00
≤ 5.00
≤ 5.00
> 7.00

* * *

Molecular target: SARS-CoV-2 3CLpro (Severe acute respiratory syndrome coronavirus 2, UniProt P0DTD1)
pIC50: −log10 of the molar value. Where a name gives a salt, the structure may show the parent alone.
measure: pIC50

Please go through the list and note pIC50 for each compound.
1. CNC(=O)c1cc(Br)cc([N+](=O)[O-])c1N[C@H]1CN(C(=O)c2cncc3ccccc23)CC12CC2
2. O=C(NC1CC1)c1cc(Br)cc([N+](=O)[O-])c1N[C@H]1CN(C(=O)c2cncc3ccccc23)CCC1(F)F
3. Cc1c(F)cncc1C(=O)N1CCC2(CCN(c3c(C(=O)NC4CC(F)(F)C4)cc(Br)cc3[N+](=O)[O-])C2)C1 (stereo not shown)
4. CN1CC[C@@H](NC(=O)c2cc(Cl)cc([N+](=O)[O-])c2N[C@H]2CN(C(=O)c3cncc4ccccc34)CCC2(F)F)C1 [Compound 93, hydrochloride]

Result block:
["6.00 to 7.00", "> 7.00", "5.00 to 6.00", "> 7.00"]
